// data source = patent US20180236053A1

Some binders, each annotated with its measured pKd.
studyTarget: CD38 antigen on the surface of cells (U266 CD38+, MOLP8, Daudi, T-ALL cell lines, activated T cells) (human, UniProt P28907 1-300)
Formally, pKd is defined as -log10 of the concentration c, with c in mol/L.

# annotated cases, reported pKd shown
- binder: "10F7 scFv (tested as anti-CD38 CARs, versions V1, V2 and V3) (scFv) scFv: QAYLQQSGAELVRSGASVKMSCKASGYTFTSYNMHWVKQTPGQGLEWIGYIYPGNGGTNYNQKFKDKATLTADTSSSTAYMQISSLTSEDSAVYFCARGGQLGRPWFAYWGQGTLVTVSAGGGGSGGGGSGGGGSNIVLTQSPASLAASPGQRATISCRASESVDSYGNTFMYWYQQKPGQPPKLLIYLASNLESGVPVRFSGSGSRTDFTLTIDPVEADDAATYYCQQNNEDPWTFGGGTKVEIK"
  pKd: 7.52
- binder: "16B5 scFv (tested as anti-CD38 CARs, versions V1, V2 and V3) (scFv) scFv: QAYLQQSGAELVRSGASVKMSCKASGYTFTSYNLHWVKQTPGQGLEWIGYIYPGNGGTNYNQKFKGKATLTADTSSSTAYMQISSLTSEDSAVYFCARGGIYYYGSSLDYWGQGTTLTVSSGGGGSGGGGSGGGGSNIVLTQSPASLAVSLGQRATISCRASESVDNYGTTFMYWYQQKPGQPPKLLIYLASNLESGVPARFSGSGSGTDFTLTIDPVEADDAATYYCQQNKEDPWTFGGGTKLEIK"
  pKd: 8.49

Sample 29B4 scFv (tested as anti-CD38 CARs, versions V1, V2 and V3) (scFv) scFv: EVQLVESGGGLVKPGGSLKLSCAASGFTFSDYFMYWVRQTPEKRLEWVAIISDGGIYTYYPDSVKGRFTISRDNAKNNLYLQMSSLKSEDTAMYYCARDGRDDYDGWYFDVWGAGTTVTVSSGGGGSGGGGSGGGGSDIVMTQSHKFMSTSVGDRVNITCKASQDVNTAVAWYQQKPGQSPKLLIYWASTRHAGVPDRFTGSGSGTDYALTISSVQAEDLALYYCQQHYSTPRTFGGGTKLEIK ; pKd observed: 9.28
